experimental target: ScLsb2
procedure details: SPOT peptide array binding signal intensity (averaged, normalized) (arbitrary units (background-subtracted, floor 0; scale differs between SH3 domains)); higher = stronger binding of the SH3 domain to the peptide
measured quantity: SPOT peptide array binding signal intensity

{"columns": ["binder", "reported value"],
 "data": [
  ["PSRRAPLQLPQLVNK", 5],
  ["RKNRAPPQRPRFNRE", 196],
  ["SRSKPLPLTPNSKYN", 1],
  ["RRARRQMGIPTISQV", 2],
  ["VLRFLGFPLPIFEKG", "≤ 0"],
  ["PSTMDFPKLPSFQNS", "≤ 0"],
  ["GSKSGPPPRPKKPST", 0.5],
  ["SKIRPTPRKPSRMAT", 3.5]
]}

Which SPOT peptide array binding signal intensity is reported for this binder? VQQDSLPKLPFRSWG
38.5

Which SPOT peptide array binding signal intensity is reported for this binder? APPPPPRRATPEKKP
9

Which SPOT peptide array binding signal intensity is reported for this binder? NFKRLLPRDPSEKSS
2

Which SPOT peptide array binding signal intensity is reported for this binder? IRMPSNPALPKKLLN
≤ 0

Which SPOT peptide array binding signal intensity is reported for this binder? STPQTMRQAPKRPDA
5

Which SPOT peptide array binding signal intensity is reported for this binder? FSRRQSMDIPSKNRN
1

Which SPOT peptide array binding signal intensity is reported for this binder? LFMKGTPEFPKSGFS
≤ 0
